- EXPERIMENTAL TARGET: T1, GALNTL4 (peptide code GALNTL4-001) peptide on HLA-A*02:01 (human)
- T1 peptide: KLTEYVDKV
- ASSAY INFO: cytokine release

BINDER	binding result
R26P3H1 (TCR, V domains shown) Valpha: AQSVAQPEDQVNVAEGNPLTVKCTYSVSGNPYLFWYVQYPNRGLQFLLKYITGDNLVKGSYGFEAEFNKSQTSFHLKKPSALVSDSALYFCAVRDMNRDDKIIFGKGTRLHILP Vbeta: DGGITQSPKYLFRKEGQNVTLSCEQNLNHDAMYWYRQDPGQGLRLIYYSQIVNDFQKGDIAEGYSVSREKKESFPLTVTSAQKNPTAFYLCASSRAEGGEQYFGPGTRLTVT	no recognition
R59P2E7 (TCR, V domains shown) Valpha: KQEVTQIPAALSVPEGENLVLNCSFTDSAIYNLQWFRQDPGKGLTSLLLIQSSQREQTSGRLNASLDKSSGRSTLYIAASQPGDSATYLCAVNSDYKLSFGAGTTVTVRA Vbeta: AAGVIQSPRHLIKEKRETATLKCYPIPRHDTVYWYQQGPGQDPQFLISFYEKMQSDKGSIPDRFSAQQFSDYHSELNMSSLELGDSALYFCASSLGLGTGDYGYTFGSGTRLTVV	no recognition
